assay: Pharmacokinetic analysis of plasma after intravenous and oral dosing; details: female, CD-1, mouse, plasma, po, 200 mg kg^−1, Concentration, Figure 6d; Time […]; individual replicates
propertyLabel: concentration at […] (ng/mL)
The answer is to be given in ng/mL; state only the numeric part.

Input: Could you tell me which concentration at […] is on file for O=C(NOCCO)c1ccc(F)c(F)c1Nc1ccc(I)cc1F [PD0316684, reference compound] ?
Output: 131

###

assay: Pharmacokinetic analysis of plasma after intravenous and oral dosing; details: female, CD-1, mouse, plasma, iv, 15 mg kg^−1, Concentration; Time 16 h; individual animals; Supplementary Figure 12b
propertyLabel: concentration at 16 h (ng/mL)
The reply should be a number in ng/mL, with the unit left off.

Input: Suppose we examine the compound O=C(O)CCOCCOCCOCCONC(=O)c1ccc(F)c(F)c1Nc1ccc(I)cc1F [LP-622] ; what concentration at 16 h value has been reported?
Output: 1.67
